Biological target: T1, CTNI quality control recombinant protein (PK2-CTNI-1, 170120, produced by the applicant) (human, UniProt P19429 2-210, limits assumed)
T1 construct: also called cardiac troponin I
T1 sequence (P19429 2-210 limits assumed): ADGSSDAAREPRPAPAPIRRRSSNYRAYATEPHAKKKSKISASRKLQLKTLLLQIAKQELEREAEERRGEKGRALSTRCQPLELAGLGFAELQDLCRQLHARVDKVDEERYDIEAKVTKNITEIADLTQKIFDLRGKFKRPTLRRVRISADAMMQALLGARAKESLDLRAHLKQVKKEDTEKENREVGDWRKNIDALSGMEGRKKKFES
Test: AMC sensor kinetics, antibody captured, cTnI analyte
# Kd per record follows
Write down the numeric answer in nM and omit the unit.

>  <BINDER>
Mutation 1-35 (antibody, V domains shown, built as for Mutation 1) VH: EVQLQQSGAELVKPGASVKLSCTASGFNIKDYYMHWMKQRTEQGLDWIGRIDPEDAETRYAPEFQGKATITADTSSNTAYLQLSTLTSEDTAVYYCARYYSSYLPFVYWGQGTLVTASA VL: DVVMTQTPLSLSVSLGDQASISCRSSQSIIYSNRHTYLHWYLQKPGQSPKLLIFQLSNRFSGVPDRFSGSGSGTDFTLKINRVEAEDLGVYFCSQSTHLPYTFGSGTKLEIKR

>  <OBSERVED_VALUE>
0.574

$$$$
>  <BINDER>
Mutation 1-15 (antibody, V domains shown, built as for Mutation 1) VH: EVQLQQSGAELVKPGASVKLSCTASGFNIKDYYMHWMKQRTEQGLDWIGRIDPEDGETRYAPEFQGKATITADTSSNTAYLQLSTLTSEDTAVYYCARYYSSYVPFVYWGQGTLVTASA VL: DVVMTQTPLSLSVSLGDQASISCRSSQSIIYSNRHTYLHWYLQKPGQSPKLLIFQVSNRFSGVPDRFSGSGSGTDFTLKINRVEAEDLGVYFCSQSTHIPYTFGSGTKLEIKR

>  <OBSERVED_VALUE>
0.917

$$$$

Turning to the following binder.
GET /values?readout=Kd&item= Mutation 1-13 (antibody, V domains shown, built as for Mutation 1) VH: EVQLQQSGAELVKPGASVKLSCTASGFNLKDYYMHWMKQRTEQGLDWIGRIDPEDAETRYAPEFQGKATITADTSSNTAYLQLSTLTSEDTAVYYCARYYSSYVPFVYWGQGTLVTASA VL: DVVMTQTPLSLSVSLGDQASISCRSSQSLIYSNRHTYLHWYLQKPGQSPKLLIFQVSNRFSGVPDRFSGSGSGTDFTLKINRVEAEDLGVYFCSQSTHLPFTFGSGTKLEIKR
0.806
